Exercise: for every item that follows, state its recorded Cmax.
# Method notes: Cassette pharmacokinetics studies in mice
# Assay type: in vivo
# Condition details: male, Balb/c, plasma; Mouse, PO, 5 mg/kg
Reply numerically in ng/mL, unit not repeated.

Query: Cmax; subject: Cc1c(Oc2cccc(NS(=O)(=O)NCC(F)(F)F)c2Cl)c(C(=O)NC2CC2)c(Nc2ccc(I)cc2F)n(C)c1=O
1430

Query: Cmax; subject: COCCNS(=O)(=O)Nc1cccc(Oc2c(C(=O)NC3CC3)c(Nc3ccc(I)cc3F)n(C)c(=O)c2C)c1Cl
801

Query: Cmax; subject: CNS(=O)(=O)Nc1cccc(Oc2c(C(=O)NC(C)C)c(Nc3ccc(I)cc3F)n(C)c(=O)c2C)c1Cl
1260

Query: Cmax; subject: CNS(=O)(=O)Nc1cccc(Oc2c(C(=O)NC3CC3)c(Nc3ccc(I)cc3F)n(C)c(=O)c2C)c1OC
432

Query: Cmax; subject: Cc1c(Oc2cccc(NS(=O)(=O)NC3CC3)c2Cl)c(C(=O)NC2CC2)c(Nc2ccc(I)cc2F)n(C)c1=O
418

Query: Cmax; subject: CNS(=O)(=O)Nc1cccc(Oc2c(C(=O)NC3CC3)c(Nc3ccc(I)cc3F)n(C)c(=O)c2C)c1Cl
1660

* * *

# Method notes: Pharmacokinetics in rat
# Format: in vivo
# Condition details: plasma, IV, 0.2 mg/kg
Metric name: clearance (mL/min/kg)
Reply numerically in mL/min/kg, unit not repeated.

Query: clearance; subject: CNS(=O)(=O)Nc1cccc(Oc2c(C(=O)NC3CC3)c(Nc3ccc(I)cc3F)n(C)c(=O)c2C)c1OC [Compound I-1]
31.9

* * *

# Measurement target: uMEK/BRAF (Homo sapiens (Human))
# Sequence (Q02750 whole entry): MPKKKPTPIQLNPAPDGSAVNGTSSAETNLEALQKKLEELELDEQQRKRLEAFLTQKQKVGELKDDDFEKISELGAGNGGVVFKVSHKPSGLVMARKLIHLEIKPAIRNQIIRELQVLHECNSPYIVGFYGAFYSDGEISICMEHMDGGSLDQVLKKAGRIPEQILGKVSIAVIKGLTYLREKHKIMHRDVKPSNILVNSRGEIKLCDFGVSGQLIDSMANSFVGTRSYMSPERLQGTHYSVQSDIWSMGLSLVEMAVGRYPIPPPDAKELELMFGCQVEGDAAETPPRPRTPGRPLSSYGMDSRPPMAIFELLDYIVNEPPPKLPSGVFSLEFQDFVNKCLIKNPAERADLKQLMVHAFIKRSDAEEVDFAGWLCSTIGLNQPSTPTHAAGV
# Method notes: MEK-RAF Binding Assay (uMEK/BRAF HTRF)
pIC50: −log10 of the molar value.
Metric name: pIC50

Query: pIC50; subject: Cc1c(Nc2ccc3c(c2)CNS(=O)(=O)N3)c(C(=O)NC2CC2)c(Nc2ccc(I)cc2F)n(C)c1=O
> 7.00

Query: pIC50; subject: Cc1c(Oc2ccc3c(c2)CNS(=O)(=O)N3)c(C(=O)NC2CC2)c(Nc2ccc(I)cc2F)n(C)c1=O
6.00 to 7.00

Query: pIC50; subject: CNS(=O)(=O)Nc1ccc(Oc2c(C(=O)NC3CC3)c(Nc3ccc(I)cc3F)n(C)c(=O)c2C)c(Cl)c1
6.00 to 7.00

Query: pIC50; subject: Cc1c(Oc2cccc(CS(N)(=O)=O)c2)c(C(=O)NC2CC2)c(Nc2ccc(I)cc2F)n(C)c1=O
6.00 to 7.00

Query: pIC50; subject: CNS(=O)(=O)n1ccc2ccc(Oc3c(C(=O)NC4CC4)c(Nc4ccc(I)cc4F)n(C)c(=O)c3C)cc21
6.00 to 7.00

Query: pIC50; subject: CNS(=O)(=O)Nc1cccc(Oc2c(C(=O)NC3CC3)c(Nc3ccc(I)cc3F)n(C)c(=O)c2C)c1OC
> 7.00

Query: pIC50; subject: CNS(=O)(=O)Nc1cc(OC)cc(Oc2c(C(=O)NC3CC3)c(Nc3ccc(I)cc3F)n(C)c(=O)c2C)c1
5.00 to 6.00

* * *

# Method notes: Cassette pharmacokinetics studies in mice
# Format: in vivo
# Condition details: male, Balb/c, plasma; Mouse, PO, 5 mg/kg
Labelling: Tmax reported below 30 min becomes criterion met; at or above becomes criterion not met.

Consider the compound CCNS(=O)(=O)Nc1cccc(Oc2c(C(=O)NC3CC3)c(Nc3ccc(I)cc3F)n(C)c(=O)c2C)c1Cl . Is its Tmax strictly less than 30 min?
criterion met

Consider the compound CNS(=O)(=O)Nc1cccc(Oc2c(C(=O)NC3CC3)c(Nc3ccc(I)cc3F)n(C)c(=O)c2C)c1OC . Is its Tmax strictly less than 30 min?
criterion met

Consider the compound Cc1c(Oc2cccc(NS(=O)(=O)NC3CC3)c2Cl)c(C(=O)NC2CC2)c(Nc2ccc(I)cc2F)n(C)c1=O . Is its Tmax strictly less than 30 min?
criterion met

Consider the compound CNS(=O)(=O)Nc1cccc(Oc2c(C(=O)NC3CC3)c(Nc3ccc(I)cc3F)n(C)c(=O)c2C)c1C(F)(F)F . Is its Tmax strictly less than 30 min?
criterion not met

Consider the compound COCCNS(=O)(=O)Nc1cccc(Oc2c(C(=O)NC3CC3)c(Nc3ccc(I)cc3F)n(C)c(=O)c2C)c1Cl . Is its Tmax strictly less than 30 min?
criterion met

Consider the compound Cc1c(Oc2cccc(NS(N)(=O)=O)c2Cl)c(C(=O)NC2CC2)c(Nc2ccc(I)cc2F)n(C)c1=O . Is its Tmax strictly less than 30 min?
criterion not met
